Target: CYP3A4 (Homo sapiens, UniProt P08684)
Construct: pre-incubated with human liver microsomes and NADPH; from tissue; host or cells: human liver microsomes
Sequence (P08684 whole entry): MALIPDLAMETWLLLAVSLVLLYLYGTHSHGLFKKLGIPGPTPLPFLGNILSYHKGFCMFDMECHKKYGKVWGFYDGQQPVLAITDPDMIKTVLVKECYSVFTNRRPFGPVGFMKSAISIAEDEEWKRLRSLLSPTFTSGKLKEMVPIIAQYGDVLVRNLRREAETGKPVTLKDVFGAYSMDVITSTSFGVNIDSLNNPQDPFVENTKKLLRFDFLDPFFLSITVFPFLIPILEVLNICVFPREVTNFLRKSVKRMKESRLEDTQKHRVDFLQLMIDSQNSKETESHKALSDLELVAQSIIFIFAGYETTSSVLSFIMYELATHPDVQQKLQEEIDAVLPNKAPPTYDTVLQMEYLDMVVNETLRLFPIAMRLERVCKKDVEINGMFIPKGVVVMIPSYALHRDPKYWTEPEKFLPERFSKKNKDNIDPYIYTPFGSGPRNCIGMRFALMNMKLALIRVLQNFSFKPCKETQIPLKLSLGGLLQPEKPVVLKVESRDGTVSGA
Experiment: Cytochrome P450 inhibition assay (midazolam hydroxylation)
Type: in vitro ADME
Settings: human, human liver microsomes, probe midazolam (hydroxylation to 1′-hydroxymidazolam), 10 μM test compound, midazolam at approximately its Km
Property label: inhibition at 10 µM (%)

C[C@@H]1CCCN(C(=O)c2cc(F)ccc2-c2ncccn2)[C@@H]1CNc1ncc(Cl)cn1; 60
C[C@@H]1CCCN(C(=O)c2cc(F)c(F)cc2-c2ncccn2)[C@@H]1CNc1ncc(Cl)cn1; 70
Cc1ccc(C(=O)N2CCC[C@@H](C)[C@H]2CNc2ccc(C(F)(F)F)cn2)c(-c2ncccn2)c1F; 83
Cc1ccc(-n2ncc(C)n2)c(C(=O)N2CCC[C@@H](C)[C@H]2CNc2nc3cc(F)ccc3o2)c1; 72
Cc1ccc(C(=O)N2CCC[C@@H](C)[C@H]2CNc2ccc(C(F)(F)F)cn2)c(-n2nccn2)c1F; 86
Cc1ccc(-c2cnn(C)c2)c(C(=O)N2CCC[C@@H](C)[C@H]2CNc2ccc(C(F)(F)F)cn2)n1; 74

Source listed as patent US9440982B2.
